# tested.system: MNK
# Construct: 10 nM recombinant MNK1 (Life Technologies, PR9138A)
# test.name: MNK Biochemical Enzymatic Assay (ADP-Glo kinase assay)
# test.parameters: recombinant MNK1 (300 μM ATP) / MNK2 (10 μM ATP) described; table does not say which isoform; read-out: MNK Biochemical Enzymatic Assay (IC50) Potency
Items are presented alongside their recorded IC50.

Could you share which IC50 value was measured for CC(C)Cc1c(C(=O)N(C)C)ccc2c1ncn2-c1ncnc(N)c1Cl [Compound 10F] ? 1 to 10 µM

Could you share which IC50 value was measured for CC(C)Cc1c(C(N)=O)ccc2c1ncn2-c1ncnc(N)c1Cl [Compound 13F] ? 1 to 10 µM

Could you share which IC50 value was measured for `CC(C)Cc1c(C(N)=O)ccc2c1ccn2-c1ncnc(N)c1Cl` ? 10 to 100 µM

Could you share which IC50 value was measured for CC(C)Cc1c(C(=O)N(C)C)ccc2c1ncn2-c1cc(N)ncn1 [Compound 11F] ? 1 to 10 µM

Could you share which IC50 value was measured for CC(C)Cc1c(C(N)=O)ccc2c1cnn2-c1ncnc(N)c1Cl [Compound 12F] ? 1 to 10 µM

Could you share which IC50 value was measured for `CC(C)Cc1c(C(N)=O)ccc2c(-c3ncnc(N)c3Cl)cn(C)c12` ? < 1 µM
